Provenance of the data: paper PMC10397247

Target: T1, P5A-bP
T1 chain: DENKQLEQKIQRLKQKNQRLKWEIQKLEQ
Test: two-hybrid library CCNG1;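 further: natural log of median RNA to DNA barcode read ratio; higher means stronger binding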
quantity-kind: interaction score

// solved cases for interaction score follow
> print(dat)
                                   binder  reported.measurement
1  DEIKQLEQEIQRLEQKNQRLKWKNQKLKQ [P3A-bP]                -0.806
2  DENKQLEQKIQRLKQKNQRLKWEIQKLEQ [P5A-bP]                 -1.57

P: DEIKQLEQENQRLEQENQRLEWEIQKLEQ [P1A-bP]
Q: DKIKQLKQKIQRLKQENQRLEWENQKLEQ [P4A-bP]
Identify the entry with the larger interaction score. Options: P and Q # answer = label of selected item
P
(P: -0.589, Q: -1.59)
